# System: EGFR L858R/C797S Ba/F3 cells
# Assay Summary: Ba/F3 cell proliferation (Cell Titer Glo), EGFR L858R/C797S
# Type: cell-based, murine
# Condition Info: Mus musculus, BaF3, Ba/F3 cells with EGFR L858R/C797S, 72 hours exposure, read-out: L/C797S
# Procedure: The EGFR mutant L858R Ba/F3 cells have been previously described (Zhou, W., et al. Nature 462, 2009, 1070-1074). […] Growth and inhibition of growth was assessed by the Cell Titer Glo assay (Promega, Madison, WI) and was performed according to the manufacturer’s instructions. The Cell Titer Glo assay is a luminescence-based method used to determine the number of viable cells based on quantitation of the ATP present, which is directly proportional to the amount of metabolically active cells present. […]
Observation Type: EC50 (nM)
Give bare numbers, in nM.

Problem: Which EC50 value is on record for C=CC(=O)Nc1cc(C(=O)Nc2nc3cccc(C)c3n2[C@@H]2CCCCN(C(=O)C=C)C2)cs1 ?
Solution: 334
